Test system: HeLa cells
Assay: Cell cycle assay in HeLa cells
Format: cell-based, human
Settings: HeLa cells, 150 nM, 48 hours, relative to untreated control
In the oligonucleotide strings, read from the 5' end, every base follows the letter of its sugar. An asterisk marks phosphorothioate; unmarked linkages are phosphodiester. Other units and linkages are bracketed, terminal groups are in braces. A string of capitals states the bases alone. e = 2'-O-(2-methoxyethyl) (MOE); [5mC] = 5-methylcytosine; d = 2'-deoxy (DNA)
Overview of recorded % cells in cell cycle phase S for various substances
Give the number; % is assumed, so skip it.

Quickly give me recorded % cells in cell cycle phase S for 345395 (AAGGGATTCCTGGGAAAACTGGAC; sugars from the 5' end e5 d10 e9, all phosphorothioate, methylation of C not given here) [compound 345395] 96

Quickly give me recorded % cells in cell cycle phase S for 327896 (antisense eA*e[5mC]*eA*eG*eT*eT*e[5mC]*eT*eT*e[5mC]*eA*eA*e[5mC]*eT*eG*eG*e[5mC]*eA*eG*e[5mC]*eT*eT) [compound 327896] 94

Quickly give me recorded % cells in cell cycle phase S for 338836 (antisense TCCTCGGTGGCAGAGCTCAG; all 2'-MOE, all phosphorothioate, methylation of C not given here) [compound 338836] 96

Source: patent US8178506B2
